- testedTarget: Uroporphyrinogen-III synthase (Homo sapiens) (UniProt P10746)
- assaySummary: Compound was tested for its activity as inhibitor of Uroporphyrinogen III synthase; Yes
The source made the active and inactive calls. The rule behind the calls is not given here.
propertyLabel: Activity

Cc1[nH]c(Cc2[nH]c(Cc3[nH]c(Cc4[nH]c(CO)c(CC(=O)O)c4CCC(=O)O)c(CC(=O)O)c3CCC(=O)O)c(CC(=O)O)c2CCC(=O)O)c(CC(=O)O)c1CCC(=O)O    Active
CC(O)c1[nH]c(Cc2[nH]c(Cc3[nH]c(Cc4[nH]cc(CCC(=O)O)c4CC(=O)O)c(CCC(=O)O)c3CC(=O)O)c(CCC(=O)O)c2CC(=O)O)c(CCC(=O)O)c1CC(=O)O (stereo not drawn)    Active
Cn1cc(CCC(=O)O)c(CC(=O)O)c1Cc1[nH]c(Cc2[nH]c(Cc3[nH]c(CO)c(CC(=O)O)c3CCC(=O)O)c(CC(=O)O)c2CCC(=O)O)c(CC(=O)O)c1CCC(=O)O    Active

* * *

- testedTarget: UniProtKB P10746
- Sequence (whole entry): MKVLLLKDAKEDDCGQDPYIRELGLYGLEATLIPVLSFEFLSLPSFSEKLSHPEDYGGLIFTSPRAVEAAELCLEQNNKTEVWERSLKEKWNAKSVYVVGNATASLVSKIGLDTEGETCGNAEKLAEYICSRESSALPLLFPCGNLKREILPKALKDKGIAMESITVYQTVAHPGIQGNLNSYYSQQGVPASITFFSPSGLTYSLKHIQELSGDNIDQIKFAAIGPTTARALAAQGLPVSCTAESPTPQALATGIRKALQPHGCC
- assaySummary: Compound was tested for its activity as inhibitor of Uroporphyrinogen III synthase; Yes
Activity calls are given as the source filed them. The rule behind the calls is not given here.
propertyLabel: Activity

Cn1c(Cc2[nH]cc(CCC(=O)O)c2CC(=O)O)c(CCC(=O)O)c(CC(=O)O)c1Cc1[nH]c(Cc2[nH]c(CO)c(CC(=O)O)c2CCC(=O)O)c(CC(=O)O)c1CCC(=O)O    Active
O=C(O)CCc1c(Br)[nH]c(Cc2[nH]c(Cc3[nH]c(Cc4[nH]c(CO)c(CC(=O)O)c4CCC(=O)O)c(CC(=O)O)c3CCC(=O)O)c(CC(=O)O)c2CCC(=O)O)c1CC(=O)O    Active
N#Cc1[nH]c(Cc2[nH]c(Cc3[nH]c(Cc4[nH]c(CO)c(CC(=O)O)c4CCC(=O)O)c(CC(=O)O)c3CCC(=O)O)c(CC(=O)O)c2CCC(=O)O)c(CC(=O)O)c1CCC(=O)O    Active
